- Tested on: PUCCINIA RECONDITA
- ASSAY_SUMMARY: Foliar fungal disease test on plants (Example 29), Puccinia recondita on wheat
- Type: in vivo
- TEST_PARAMETERS: 100 ppm a.i. foliar spray plus root drench approx. 40 ppm ai./dry soil, mostly protectant, applied 1-2 days before inoculation
OUTCOME_MEASURE: Disease control PUCCINIA RECONDITA (WHEAT)

[
  {
    "MOLECULE": "CON=C(C#N)C(=O)NC(C)C#N (stereo not drawn)",
    "OBSERVED": 4
  },
  {
    "MOLECULE": "C#CCNC(=O)C(C#N)=NOC",
    "OBSERVED": 4
  }
]
